Test system: Escherichia coli TOP10;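 note: peptides expressed intracellularly from a pBAD plasmid library in pooled LB shake-flask culture, induced with 0.3% L-arabinose, DNA abundance read by NGS, three biological replicates, DESeq2 with apeglm shrinkage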
experiment-summary: shrunken log2 fold change of peptide-encoding DNA abundance (4.5 h post-induction vs induction); higher = less antimicrobial activity (less host growth inhibition)
experimental-setup: time post-induction: 4.5 h; library: site-saturation at positions 5, 18, 19, 20
Label rule met when shrunken log2 fold change >= 0.02; otherwise rule not met.

Below are worked cases with known answers.
> print(dat)
           record.sequence  answer.label
1  RRIRIRPPRLPRPRPRPCLPPRP  rule not met
2  RRIRGRPPRLPRPRPRPYMCPRP      rule met
3  RRIRGRPPRLPRPRPRPYSHPRP  rule not met

Request: API: above_or_equal(metric=shrunken log2 fold change, cutoff=0.02) for item `RRIRARPPRLPRPRPRPYTNPRP`
Response: rule not met

Request: Is the recorded value of shrunken log2 fold change equal to or greater than 0.02 for this sequence? `RRIRTRPPRLPRPRPRPPHPPRP`
Response: rule met

Request: Exam item: decide whether the reported shrunken log2 fold change for `RRIRGRPPRLPRPRPRPSSFPRP` is at least 0.02.
Response: rule met

Request: API: above_or_equal(metric=shrunken log2 fold change, cutoff=0.02) for item `RRIRHRPPRLPRPRPRPSIEPRP`
Response: rule not met
